experiment: Metabolic stability in rat liver microsomes assessed as clearance at 1 uM measured upto 90 mins by LC-MS/MS analysis; type: ADME, Microsome; conditions: read-out: CLH
quantity_kind: CLint scaled at 1 µM (mL/min/kg)

INSERT INTO assay_data (compound, quantity_kind, experimental_value) VALUES
  ('CC(C)N1C(=O)COc2cc(F)c(C(=O)Nc3cccc(-c4nncn4C(C)C)n3)cc21', 'CLint scaled at 1 µM', 140);

a = CC(CO)n1cnnc1-c1cccc(NC(=O)c2cc3c(cc2F)OCC(=O)N3)n1 (centres undefined)
b = O=C(Nc1cccc(-c2nncn2CC2CC2)n1)c1cc2c(cc1F)OCc1cncn1-2
c = O=C1CCc2cc(F)c(C(=O)Nc3cccc(-c4nncn4C4CC4)n3)cc2N1
Order field: CLint scaled at 1 µM | Direction: descending (largest first) I would appreciate it if you listed the labels in the requested order. b, a, c
(b: 151 mL/min/kg, a: 19.5 mL/min/kg, c: 10.2 mL/min/kg)

----------
assay: Metabolic stability in rat liver microsomes assessed as half life at 1 uM measured upto 90 mins by LC-MS/MS analysis; assay type: ADME, Microsome
quantity_kind: half-life at 1 µM (h)

INSERT INTO measurements (molecule, experimental_value) VALUES
  ('CC(C)n1cnnc1-c1cccc(NC(=O)c2cc3c(cc2F)OCC(=O)N3)n1', 3.02);

a = CC(C)n1cnnc1-c1cccc(NC(=O)c2cc3c(cc2F)OC(C)(C)C(=O)N3C)n1
b = CC(C)n1cnnc1-c1cccc(NC(=O)c2cc3c(cc2F)CCCC(=O)N3C)c1
c = CC(C)n1cnnc1-c1cccc(NC(=O)c2cc3c(cc2F)OCC(=O)N3C)n1
d = O=C(Nc1cccc(-c2nncn2-c2ccccc2)n1)c1cc2c(cc1F)OCc1cncn1-2
Order field: half-life at 1 µM | Direction: descending (largest first) I would appreciate it if you listed the labels in the requested order. b, c, a, d

----------
experiment: Volume of distribution at steady state in Sprague-Dawley rat at 1 mg/kg, iv measured upto 24 hrs by LC-MS/MS analysis; format: ADME, organism-based; settings: in vivo, read-out: Vdss
quantity_kind: Vd (L/kg)

INSERT INTO assay_data (molecule, quantity_kind, experimental_value) VALUES
  ('CC(C)n1cnnc1-c1cccc(NC(=O)c2cc3c(cc2F)OCC(=O)N3C)n1', 'Vd', 1.49),
  ('CN1C(=O)CCCc2cc(F)c(C(=O)Nc3cccc(-c4nncn4C4CC4)n3)cc21', 'Vd', 1.14),
  ('CC(C)n1cnnc1-c1cccc(NC(=O)c2cc3c(cc2F)C(C)(C)CC(=O)N3)n1', 'Vd', 1.07),
  ('CC(C)n1cnnc1-c1cccc(NC(=O)c2cc3c(cc2F)CCC(=O)N3)n1', 'Vd', 0.56);

I = CC(C)n1cnnc1-c1cccc(NC(=O)c2cc3c(cc2F)OCC(=O)N3)n1
II = CC(C)n1cnnc1-c1cccc(NC(=O)c2cc3c(cc2F)OCc2cncn2-3)c1
Among I and II , which shows a numerically higher Vd result? Answer by stating the label of the chosen item. II
(II: 2.61 L/kg, I: 0.85 L/kg)

----------
test: Metabolic stability in human liver microsomes assessed as half life at 1 uM measured upto 90 mins by LC-MS/MS analysis; format: ADME, Microsome
quantity_kind: half-life at 1 µM (min)

INSERT INTO results (molecule, quantity_kind, experimental_value) VALUES
  ('O=C1COc2cc(F)c(C(=O)Nc3cccc(-c4nncn4C4CCCC4)n3)cc2N1', 'half-life at 1 µM', 18.4);

P = CC(C)N1C(=O)COc2cc(F)c(C(=O)Nc3cccc(-c4nncn4C(C)C)n3)cc21
Q = CC(C)n1cnnc1-c1cccc(NC(=O)c2cc3c(cc2F)CCC(=O)N3)c1
R = CC(C)n1cnnc1-c1cccc(NC(=O)c2cc3c(cc2F)CCC(=O)N3C)n1
S = O=C1CCc2cc(F)c(C(=O)Nc3cccc(-c4nncn4C4CC4)n3)cc2N1
T = CN1C(=O)CCCc2cc(F)c(C(=O)Nc3cccc(-c4nncn4C4CC4)n3)cc21
Order field: half-life at 1 µM | Direction: descending (largest first) I would appreciate it if you listed the labels in the requested order. Q, S, R, T, P
